test: Area under curve was determined in rat after PO administration; format: ADME, organism-based; parameters: concentration or dose not given beside the values; details: in vivo
The following molecules are listed with their measured AUC values.
property-name: AUC

>>> print(df.to_string())
                                   molecule     result
0  O=C1NCc2c(-c3ccc(F)cc3Cl)cc(CN3CCNCC3)cc2N1c1c(Cl)cccc1Cl  0.04 µM·h
1  CC(C)(C)N1CCC(c2cc(-c3ccc(F)cc3Cl)c3c(c2)N(c2c(Cl)cccc2Cl)C(=O)NC3)CC1  0.58 µM·h
2  CCN1CCC(c2cc(-c3ccc(F)cc3Cl)c3c(c2)N(c2c(Cl)cccc2Cl)C(=O)NC3)CC1  0.11 µM·h
3  O=C1NCc2c(-c3ccc(F)cc3Cl)cc(C3CCN(CC4CC4)CC3)cc2N1c1c(Cl)cccc1Cl  0.15 µM·h
4  O=C1NCc2c(-c3ccccc3Cl)cc(OC3CCNCC3)cc2N1c1c(Cl)cccc1Cl  0.02 µM·h
5  O=C1NCc2c(-c3ccccc3Cl)cc(N3CCNCC3)cc2N1c1c(Cl)cccc1Cl  0.22 µM·h
6  CC(C1CC1)N1CCC(c2cc(-c3ccc(F)cc3Cl)c3c(c2)N(c2c(Cl)cccc2Cl)C(=O)NC3)CC1 (stereo not drawn)  0.36 µM·h
7  CC(C)N1CCC(c2cc(-c3ccc(F)cc3Cl)c3c(c2)N(c2c(Cl)cccc2Cl)C(=O)NC3)CC1  0.06 µM·h

----------
assay: Half-life in rat; assay type: ADME, organism-based; details: in vivo
So basically, if half-life comes in under 2 h it's true (1), and if it's 2 h or more it's false (0).

                                         smi  answer_label
 0  CN1CCC(c2cc(-c3ccc(F)cc3Cl)c3c(c2)N(c2c(Cl)cccc2Cl)C(=O)NC3)CC1      true (1)
 1  CC(C)N1CCC(c2cc(-c3ccc(F)cc3Cl)c3c(c2)N(c2c(Cl)cccc2Cl)C(=O)NC3)CC1      true (1)
 2  CC(C)(C)N1CCC(c2cc(-c3ccc(F)cc3Cl)c3c(c2)N(c2c(Cl)cccc2Cl)C(=O)NC3)CC1     false (0)
 3  O=C1NCc2c(-c3ccccc3Cl)cc(OC3CCNCC3)cc2N1c1c(Cl)cccc1Cl     false (0)
 4  O=C1NCc2c(-c3ccc(F)cc3Cl)cc(C3CCN(CC4CC4)CC3)cc2N1c1c(Cl)cccc1Cl      true (1)
 5  O=C1NCc2c(-c3ccc(F)cc3Cl)cc(C3CCN(CC4CCC4)CC3)cc2N1c1c(Cl)cccc1Cl      true (1)
 6  O=C1NCc2c(-c3ccc(F)cc3Cl)cc(C3CCN(C4CCC4)CC3)cc2N1c1c(Cl)cccc1Cl      true (1)
 7  CCN1CCC(c2cc(-c3ccc(F)cc3Cl)c3c(c2)N(c2c(Cl)cccc2Cl)C(=O)NC3)CC1     false (0)
 8  O=C1NCc2c(-c3ccc(F)cc3F)cc(C3CCNCC3)cc2N1c1c(Cl)cccc1Cl     false (0)
 9  O=C(c1cc(-c2ccc(F)cc2F)c2c(c1)N(c1c(Cl)cccc1Cl)C(=O)NC2)N1CCNCC1     false (0)
10  O=C1NCc2c(-c3ccc(F)cc3Cl)cc(CN3CCNCC3)cc2N1c1c(Cl)cccc1Cl     false (0)
11  O=C1NCc2c(-c3ccccc3Cl)cc(C3CCNCC3)cc2N1c1c(Cl)cccc1Cl     false (0)
12  O=C1NCc2c(-c3ccccc3Cl)cc(N3CCNCC3)cc2N1c1c(Cl)cccc1Cl      true (1)
13  O=C1NCc2c(-c3ccc(F)cc3Cl)cc(C3CCN(C4CC4)CC3)cc2N1c1c(Cl)cccc1Cl     false (0)

Where these numbers come from: ChEMBL document CHEMBL1136271
